So I've got a bunch of compounds here, and I need their IC50 values.
Test target: purified recombinant Yck2 (Candida albicans)
Construct: Yck2 residues 37-345 were PCR amplified from C. albicans genomic DNA; His6 (N); TEV protease site (N)
Sequence (A0A1D8PKB4 entry or part of it): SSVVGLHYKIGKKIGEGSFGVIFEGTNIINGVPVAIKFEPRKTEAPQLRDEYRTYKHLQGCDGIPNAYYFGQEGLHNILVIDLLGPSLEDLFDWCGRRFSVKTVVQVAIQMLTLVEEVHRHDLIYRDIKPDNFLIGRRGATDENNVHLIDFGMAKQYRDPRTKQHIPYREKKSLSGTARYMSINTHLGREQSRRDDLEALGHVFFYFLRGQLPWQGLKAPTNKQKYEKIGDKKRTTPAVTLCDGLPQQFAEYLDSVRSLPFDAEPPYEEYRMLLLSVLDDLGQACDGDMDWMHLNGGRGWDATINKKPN
Assay method text: HotSpot kinase assay
The response must be a number in µM with no trailing unit.

Q. Report IC50 for Cn1cc(-c2ccnc3c2C(=O)N(CC(O)(Cn2ccnc2)c2ccc(F)cc2F)C3)c(-c2ccc(F)cc2)n1 (stereo not shown)
A. 0.0463

Q. Report IC50 for Cn1cc(-c2ccncc2CNCCC(O)(Cn2cncn2)c2ccc(F)cc2F)c(-c2ccc(F)cc2)n1 (stereo not shown)
A. 0.179

Q. Report IC50 for Nc1nccc(-c2c(-c3ccc(F)cc3)ncn2C2CCN(C[C@](O)(Cn3cncn3)c3ccc(F)cc3F)CC2)n1 (single isomer, unassigned)
A. 0.0123

Q. Report IC50 for Cn1cc(-c2ccncc2CNCC(O)(Cn2cncn2)c2ccc(F)cc2F)c(-c2ccc(F)cc2)n1 (stereo not shown)
A. 0.335

Q. Report IC50 for O=C(NCC(O)(Cn1cncn1)c1ccc(F)cc1F)c1ccc2c(-c3ccncc3)c(-c3ccc(F)cc3)nn2c1 (stereo not shown)
A. 0.00367

Q. Report IC50 for OC(CN1CCC(Oc2cccc3c(-c4ccncc4)c(-c4ccc(F)cc4)nn23)CC1)(Cn1cncn1)c1ccc(F)cc1F (stereo not shown)
A. 0.176

Q. Report IC50 for Nc1nccc(-c2c(-c3ccc(F)cc3)ncn2C2CCN(C3CCN(CC(O)(Cn4cncn4)c4ccc(F)cc4F)CC3)CC2)n1 (stereo not shown)
A. 0.0723

Provenance of the data: patent US20260199483A1
